Each recorded value in this set is attributed to ChEMBL document CHEMBL1140512.

Assay: Tmax in rat at 10 mg/kg, po
Assay type: ADME, organism-based
Set-up: dose 10 mg/kg, route oral
Conditions: in vivo
quantity name: Tmax (h)
Expressed in h, but write only the number.

{"input smiles": "Cc1c(C(C)(C)C)s/c(=N\\C(=O)c2cccc(C(F)(F)F)c2)n1CC1CC1", "measured": 2}

Next compound, Tmax to be filled in.
input: Report Tmax for COc1ccc(C(F)(F)F)cc1C(=O)/N=c1\sc(C(C)(C)C)c(C)n1CC1CC1 please.
output: 1

====

Biological target: Cannabinoid receptor 2 (Homo sapiens, UniProt P34972)
Sequence (P34972 whole entry): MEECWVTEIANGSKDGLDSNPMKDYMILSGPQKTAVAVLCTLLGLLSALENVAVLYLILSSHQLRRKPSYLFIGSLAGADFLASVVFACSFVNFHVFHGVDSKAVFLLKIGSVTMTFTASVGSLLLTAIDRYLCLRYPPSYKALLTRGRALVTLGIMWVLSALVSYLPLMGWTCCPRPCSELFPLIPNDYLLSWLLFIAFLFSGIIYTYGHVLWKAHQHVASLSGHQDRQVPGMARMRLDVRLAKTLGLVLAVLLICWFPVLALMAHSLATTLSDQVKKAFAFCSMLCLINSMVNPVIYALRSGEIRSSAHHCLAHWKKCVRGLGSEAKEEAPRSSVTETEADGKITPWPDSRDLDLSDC
Assay: Agonist activity at human CB2 receptor expressed in CHO cells by [35S]GTP-gamma-S binding assay
quantity name: EC50 (nM)
Expressed in nM, but write only the number.

Use these answered entries as a reference point.
{"input smiles": "Cc1c(C(C)(C)C)s/c(=N\\C(=O)c2cccc(C(F)(F)F)c2)n1CC1CC1", "measured": 10}
{"input smiles": "COCCn1c(C)c(C(C)(C)C)s/c1=N\\C(=O)c1cccc(C(F)(F)F)c1", "measured": 5.6}
{"input smiles": "COc1ccc(C(F)(F)F)cc1C(=O)/N=c1\\sc(C(C)(C)C)c(C)n1CC1CC1", "measured": 0.62}

input: Report EC50 for Cc1c(C(C)(C)C)s/c(=N\C(=O)c2cccc(OC(F)(F)F)c2)n1CC1CC1 please.
output: 7.6

input: Report EC50 for Cc1c(C(C)(C)C)s/c(=N\C(=O)c2cc(C(F)(F)F)ccc2F)n1CC1CC1 please.
output: 1.5

input: Report EC50 for Cc1ccc(C(F)(F)F)cc1C(=O)/N=c1\sc(C(C)(C)C)c(C)n1CC1CC1 please.
output: 2.7

input: Report EC50 for Cc1c(C(C)(C)C)s/c(=N\C(=O)c2cc(C(F)(F)F)ccc2N(C)C)n1CC1CC1 please.
output: 7.3

input: Report EC50 for CCOCCn1c(C)c(C(C)(C)C)s/c1=N\C(=O)c1cccc(C(F)(F)F)c1 please.
output: 2

input: Report EC50 for Cc1c(C(C)(C)C)s/c(=N\C(=O)c2ccccc2)n1CC1CC1 please.
output: 86

input: Report EC50 for Cc1c(C(C)(C)C)s/c(=N\C(=O)c2cccc(Br)c2)n1CC1CC1 please.
output: 0.3

input: Report EC50 for Cc1c(C(C)(C)C)s/c(=N\C(=O)c2cc(C(F)(F)F)ccc2Cl)n1CC1CC1 please.
output: 4
